tested.target: T1, ALKBH2 (Homo sapiens, UniProt Q6NS38 1-261)
T1 sequence: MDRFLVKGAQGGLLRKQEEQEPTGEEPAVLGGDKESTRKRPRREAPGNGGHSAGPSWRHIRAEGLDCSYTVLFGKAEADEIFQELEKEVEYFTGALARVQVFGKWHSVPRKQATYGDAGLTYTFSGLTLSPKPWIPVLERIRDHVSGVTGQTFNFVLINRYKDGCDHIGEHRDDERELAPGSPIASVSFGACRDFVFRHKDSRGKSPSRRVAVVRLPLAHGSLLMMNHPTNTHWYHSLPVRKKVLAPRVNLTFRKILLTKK
measurement.notes: stopped-flow εA fluorescence; Fe(II), 2OG; enzyme-product complex after εA repair; 50 mM HEPES-KOH pH 7.5, 50 mM KCl, 10 mM MgCl2, 25 °C (titration, 1 uM enzyme per legend); 2 mM EDTA for apo; stopped-flow buffer not printed in the material
measurement.setup: protein: recombinant; (Ni-chelating column); blunt
pKd: −log10 of the molar value.

>  <binder>
undamaged 15 nt duplex (A instead of m1A); also product A of m1A or εA repair (dsDNA) DNA 1: ACAGGATCCGGCATA DNA 2: TATGCCGGATCCTGT

>  <pKd>
5.66

$$$$
